Assay: Human HepG2 cell viability assay in 384 well format
Format: toxicity, cell-based
Parameters: dose 125 nL, time 70.5 hour; concentration not given beside the values
Details: HepG2 cells, read-out: Inhibition
Property Label: cytotoxicity at 70.5 h (%)
Answer format: numeric, % implied, no suffix.

-- ask Would you mind telling me what cytotoxicity at 70.5 h value was observed for "CCOc1ccc(NC(=O)c2scnc2CC)cc1CO" ?
-- reply 1.88

-- ask Would you mind telling me what cytotoxicity at 70.5 h value was observed for "COCCN1C(=O)[C@H]2CC[C@@H]1CN(c1nccc(C)n1)C2" ?
-- reply -9.1

-- ask Would you mind telling me what cytotoxicity at 70.5 h value was observed for "CCS(=O)(=O)N1C[C@@H](c2ccccc2)[C@@]2(CCNC2=O)C1" ?
-- reply -4.06

***
-- ask Would you mind telling me what cytotoxicity at 70.5 h value was observed for "NC(=O)c1cnc(NC2CCN(c3ccccn3)CC2)c(Cl)c1" ?
-- reply -6.48

-- ask Would you mind telling me what cytotoxicity at 70.5 h value was observed for "O=C(CCn1ccccc1=O)Nc1ccc(F)c(Cl)c1" ?
-- reply -11.7

-- ask Would you mind telling me what cytotoxicity at 70.5 h value was observed for Cc1ccc(N2CCCN(C(=O)C(C)OCC3CC3)CC2)nn1 (stereo not drawn) ?
-- reply -11.3

-- ask Would you mind telling me what cytotoxicity at 70.5 h value was observed for C1CC(c2noc(C3CC3)n2)N(Cc2nnc(C3CC3)o2)C1 (stereo not drawn) ?
-- reply -7.72

-- ask Would you mind telling me what cytotoxicity at 70.5 h value was observed for Cc1cc(C)n(C2CCCN(C(=O)CN(C)C3CC3)C2)n1 (stereo not drawn) ?
-- reply -3.88

-- ask Would you mind telling me what cytotoxicity at 70.5 h value was observed for "CO[C@@H]1CCN(Cc2ccoc2)C[C@@H]1Cc1ccccc1" ?
-- reply 1.1

###

Assay: Human HepG2 cell viability assay in 384 well format
Assay type: toxicity, cell-based
Parameters: dose 125 nL, time 70.5 hour; concentration not given beside the values
Settings: HepG2 cells, read-out: Inhibition
# cytotoxicity at 70.5 h annotations
Answer format: numeric, % implied, no suffix.

-- ask Would you mind telling me what cytotoxicity at 70.5 h value was observed for "CN(C)c1ccc(NC(=O)NCc2ccc(Cl)s2)cn1" ?
-- reply -7.08

-- ask Would you mind telling me what cytotoxicity at 70.5 h value was observed for "Cn1c(=O)c2cc(C(=O)NCCc3ccccc3)ccc2n(C)c1=O" ?
-- reply -1.15

-- ask Would you mind telling me what cytotoxicity at 70.5 h value was observed for "Cn1ccc(C(=O)N2C[C@H]3CCC[C@@]3(COCc3cccnc3)C2)n1" ?
-- reply -0.791

-- ask Would you mind telling me what cytotoxicity at 70.5 h value was observed for "CNC(=O)[C@H]1C[C@@H]2CN(S(=O)(=O)c3ccccc3)C[C@@H]2N1C(C)=O" ?
-- reply -3.07

-- ask Would you mind telling me what cytotoxicity at 70.5 h value was observed for "CCOCC(=O)N1C[C@@H](NC(C)=O)[C@H](c2ccc(OC)cc2)C1" ?
-- reply -8.31

-- ask Would you mind telling me what cytotoxicity at 70.5 h value was observed for CCS(=O)(=O)N1CCOC2(COCCN(c3nccs3)C2)C1 (configuration not stated) ?
-- reply -8.91

-- ask Would you mind telling me what cytotoxicity at 70.5 h value was observed for Cc1ccc(NC(=O)NC(C)c2nc[nH]n2)cc1 (configuration not stated) ?
-- reply -5.24

-- ask Would you mind telling me what cytotoxicity at 70.5 h value was observed for COCCN1C2(CCN(C(=O)c3cccs3)C2)c2ccccc2S1(=O)=O (configuration not stated) ?
-- reply 2.42

***
-- ask Would you mind telling me what cytotoxicity at 70.5 h value was observed for "CCOCC(=O)Nc1ccc(-n2ccc(C(N)=O)n2)cc1" ?
-- reply -5.89

-- ask Would you mind telling me what cytotoxicity at 70.5 h value was observed for Cc1cnn(C2CCCN(C(=O)CCc3cscn3)C2)c1 (configuration not stated) ?
-- reply 2.26

-- ask Would you mind telling me what cytotoxicity at 70.5 h value was observed for "CC(C)c1ccc(OCCC(=O)N(C)CC(=O)N(C)C)cc1" ?
-- reply 16

-- ask Would you mind telling me what cytotoxicity at 70.5 h value was observed for "CC(C)CN1CCC(N2CCC(C(=O)N(C)C)CC2)CC1" ?
-- reply 3.98

-- ask Would you mind telling me what cytotoxicity at 70.5 h value was observed for CCNS(=O)(=O)C1CCN(C(=O)c2ccc(CC)o2)C1 (configuration not stated) ?
-- reply -9.53
